Listed below: z-score of subpopulation abundance values for each entry.
system: Saccharomyces cerevisiae BY4741 SeMeCo community; assay: z-score of subpopulation abundance vs DMSO median, subpopulation auxotrophic for U; higher = larger share of this subpopulation than in DMSO controls; details: 10 µM; 24 h; SM minimal medium; subpopulation (auxotrophy): U
Structures can show the parent of a compound that is named as a salt.
Just the number, please, no unit attached.

Worked cases, z-score of subpopulation abundance given:
compound	tgt	z-score of subpopulation abundance
COc1ccnc(C[S+]([O-])c2nc3cc(-n4cccc4)ccc3[nH]2)c1C (centres undefined)	Saccharomyces cerevisiae BY4741 SeMeCo community	-1.42
NC(=O)[C@@H]1CC[C@@H]2CN1C(=O)N2OS(=O)(=O)O [Avibactam sodium]	Saccharomyces cerevisiae BY4741 SeMeCo community	0.13
O=C1[C@@H]2[C@H]3CC[C@H](C3)[C@@H]2C(=O)N1C[C@@H]1CCCC[C@H]1CN1CCN(c2nsc3ccccc23)CC1	Saccharomyces cerevisiae BY4741 SeMeCo community	-1.4
N[C@@H](CCC(=O)O)C(=O)O [(S)-Glutamic acid]	Saccharomyces cerevisiae BY4741 SeMeCo community	0.05
C[C@]12CCC(=O)C=C1[C@@H]1C[C@@H]1[C@H]1[C@@H]3[C@@H]4C[C@@H]4[C@@]4(CCC(=O)O4)[C@@]3(C)CC[C@@H]12	Saccharomyces cerevisiae BY4741 SeMeCo community	-0.17
CCc1c2c(nc3ccc(OC(=O)N4CCC(N5CCCCC5)CC4)cc13)-c1cc3c(c(=O)n1C2)COC(=O)[C@]3(O)CC [Irinotecan HCl Trihydrate]	Saccharomyces cerevisiae BY4741 SeMeCo community	-0.91
CC(C)COCC(CN(Cc1ccccc1)c1ccccc1)N1CCCC1 (centres undefined) [Bepridil hydrochloride]	Saccharomyces cerevisiae BY4741 SeMeCo community	-0.09
O=C(O)CCC(=O)Nc1ccc(S(=O)(=O)Nc2nccs2)cc1	Saccharomyces cerevisiae BY4741 SeMeCo community	0.33

Look up z-score of subpopulation abundance: `CC1(C)S[C@@H]2[C@H](NC(=O)Cc3ccccc3)C(=O)N2[C@H]1C(=O)O.CCN(CC)CCOC(=O)c1ccc(N)cc1` -0.07

Look up z-score of subpopulation abundance: COCC1=C(C(=O)OC(C)OC(=O)OC(C)C)N2C(=O)[C@@H](NC(=O)/C(=N\OC)c3csc(N)n3)[C@H]2SC1 (some centres undefined) 0.51

Look up z-score of subpopulation abundance: CN[C@@H]1[C@@H](O)[C@@H](O[C@@H]2[C@@H](O)[C@H](O[C@H]3OC(CN)=CC[C@H]3N)[C@@H](N)C[C@H]2N)OC[C@]1(C)O [Sisomicin sulfate] 0.55

Look up z-score of subpopulation abundance: `c1cnc(N2CCN(Cc3ccc4c(c3)OCO4)CC2)nc1` 0.44

Look up z-score of subpopulation abundance: CC(C)Cc1ccc(C(C)C(=O)O)cc1 (centres undefined) -1.82

Look up z-score of subpopulation abundance: CO[C@@]1(NC(=O)C(C(=O)O)c2ccc(O)cc2)C(=O)N2C(C(=O)O)=C(CSc3nnnn3C)CO[C@@H]21 (some centres undefined) [Latamoxef sodium] -0.29

Look up z-score of subpopulation abundance: CCCCc1oc2ccccc2c1C(=O)c1cc(I)c(OCCN(CC)CC)c(I)c1 [Amiodarone HCl] -0.62

Look up z-score of subpopulation abundance: CC(C)[N+]1(C)[C@@H]2CC[C@H]1C[C@@H](OC(=O)C(CO)c1ccccc1)C2 (some centres undefined) [Ipratropium Bromide] -0.33

Look up z-score of subpopulation abundance: CN1[C@@H]2CC[C@H]1C[C@@H](OC(=O)c1c[nH]c3ccccc13)C2 [Tropisetron] -0.36

Look up z-score of subpopulation abundance: CCCCCCCCCC(=O)NC1C(Oc2c3cc4cc2Oc2ccc(cc2Cl)C(OC2OC(CO)C(O)C(O)C2NC(C)=O)C2NC(=O)C(NC(=O)C4NC(=O)C4NC(=O)C(Cc5ccc(c(Cl)c5)O3)NC(=O)C(N)c3ccc(O)c(c3)Oc3cc(O)cc4c3)c3ccc(O)c(c3)-c3c(OC4OC(CO)C(O)C(O)C4O)cc(O)cc3C(C(=O)O)NC2=O)OC(CO)C(O)C1O (centres undefined) -0.01

Look up z-score of subpopulation abundance: `CCCCOc1ccc(CC(=O)NO)cc1` 0.85

Look up z-score of subpopulation abundance: CCC(C)n1ncn(-c2ccc(N3CCN(c4ccc(OCC5COC(Cn6cncn6)(c6ccc(Cl)cc6Cl)O5)cc4)CC3)cc2)c1=O (centres undefined) -0.83
